# Tested on: PIP5K2B
# settings: concentration: 1 μM,replicates: in singlicate; n = 1;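 further: KINOMEscan kinase panel screen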
property: %Inh (%)
Use % as the unit, but write only the number.

[
  {
    "molecule": "Cc1n[nH]c2ccc(-c3cc(OC[C@@H](N)Cc4ccccc4)cnc3-c3ccoc3)cc12.O=C(O)C(F)(F)F.O=C(O)C(F)(F)F",
    "property": "%Inh",
    "resultUnit": "%",
    "endpointValue": 41
  },
  {
    "molecule": "CCN(CC)CCOc1ccc(Nc2ncc3cc(-c4c(Cl)cccc4Cl)c(=O)n(C)c3n2)cc1",
    "property": "%Inh",
    "resultUnit": "%",
    "endpointValue": 16
  },
  {
    "molecule": "CC(C)N1C(=O)Cc2cc(Nc3ncc(C(F)(F)F)c(NCc4cccc(S(C)(=O)=O)c4)n3)ccc21",
    "property": "%Inh",
    "resultUnit": "%",
    "endpointValue": 57
  }
]

In plain terms, CN(C)CC(O)COc1ccc(Nc2nccc(-c3cnn4nc(N5CCOCC5)ccc34)n2)cc1 (centres unmarked) has a documented %Inh of 77

Documented %Inh of CNC(=O)c1ccccc1Sc1ccc2c(/C=C/c3ccccn3)n[nH]c2c1 : 12

molecule O=C(NCCCN1CCOC1=O)c1cnc(NCc2cc(Cl)ccc2Cl)nc1NC1CCCC1 , %Inh observed: 0

The molecule identified as O=C(NCCNc1ccnc(NCc2ccc(F)cc2)n1)c1cc2ccccc2s1 registered its %Inh at 20

get_value(item= C=CC(=O)Nc1cc2c(Nc3ccc(F)c(Cl)c3)ncnc2cc1OCCCN1CCOCC1 , readout=%Inh) returns 0

For record CC(C)Nc1cc(-c2ccc3c(N)n[nH]c3c2)nc(N)n1 the listed %Inh is 32

Entry C[C@H]1Oc2cc(cnc2N)-c2c(nn(C)c2C#N)CN(C)C(=O)c2ccc(F)cc21 — recorded %Inh = 0

Record Cc1ccc(-n2nc(C(C)(C)C)cc2NC(=O)Nc2ccc(OCCN3CCOCC3)c3ccccc23)cc1 , field %Inh: 23

%Inh reported for this molecule Cl.Cl.Nc1nc(-c2ccc3c(N)n[nH]c3c2)cc(N2CCCC(NC(=O)c3ccccc3)C2)n1 (centres unmarked) : 38

Please fill in: %Inh reported for Cc1occc1-c1nc(N)c(OC[C@@H](N)Cc2c[nH]c3ccccc23)cc1-c1cc2c(C)n[nH]c2cn1 = 11

Lookup result for C[C@@H](Oc1cc(-c2cnn(C3CCNCC3)c2)cnc1N)c1c(Cl)ccc(F)c1Cl ; measured %Inh: 79

---

# System: ERBB4
# settings: concentration: 1 μM,replicates: in singlicate; n = 1
property: %Inh (%)
# value in %; strip the unit string

%Inh in this record for Cl.Cl.NC[C@H](Cc1ccc(C(F)(F)F)cc1)NC(=O)c1cc(Br)c(-c2ccnc3[nH]ccc23)s1 : 41

---

The entries below are paired with their reported %Inh.
# Test system: MYLK2
# settings: concentration: 1 μM,replicates: in singlicate; n = 1
Write the number in % without appending the unit.

Observe how each entry below is paired with its result.
[
  {
    "molecule": "CNC(=O)c1ccccc1Sc1ccc2c(/C=C/c3ccccn3)n[nH]c2c1",
    "property": "%Inh",
    "resultUnit": "%",
    "endpointValue": 9
  },
  {
    "molecule": "Cl.Cl.Nc1nc(-c2ccc3c(N)n[nH]c3c2)cc(N2CCCC(NC(=O)c3ccccc3)C2)n1 (stereo not shown) [GSK2286775]",
    "property": "%Inh",
    "resultUnit": "%",
    "endpointValue": 0
  },
  {
    "molecule": "Cl.Oc1cc(-c2nc(-c3ccccc3)[nH]c2-c2ccncc2)ccc1Cl [SB-386023]",
    "property": "%Inh",
    "resultUnit": "%",
    "endpointValue": 0
  },
  {
    "molecule": "Cl.Cl.NC[C@H](Cc1ccc(C(F)(F)F)cc1)NC(=O)c1cc(Br)c(-c2ccnc3[nH]ccc23)s1 [GSK1487252]",
    "property": "%Inh",
    "resultUnit": "%",
    "endpointValue": 25
  },
  {
    "molecule": "O=C(NCCCN1CCOC1=O)c1cnc(NCc2cc(Cl)ccc2Cl)nc1NC1CCCC1",
    "property": "%Inh",
    "resultUnit": "%",
    "endpointValue": 0
  }
]

Query O=C(NCCNc1ccnc(NCc2ccc(F)cc2)n1)c1cc2ccccc2s1 [GSK1379944] yields %Inh of 0

The value of %Inh measured for the molecule Nc1nc(Nc2ccccc2)cc(-c2ccc3c(N)n[nH]c3c2)n1 [GSK2225749] turned out to be 51

Short answer for Cc1cc2cn[nH]c2cc1-c1cccc2c(N)c(C(N)=O)nnc12 : %Inh was 0

Short answer for CCn1c(-c2nonc2N)nc2c(C#CC(C)(C)O)nc(OCCN)cc21.Cl.Cl [GSK902056] : %Inh was 33

Item: C=CC(=O)Nc1cc2c(Nc3ccc(F)c(Cl)c3)ncnc2cc1OCCCN1CCOCC1 [GW781483] | %Inh: 0
